ASSAY_DETAILS: chemical recovery from spiked human plasma; higher = better extraction;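 note: plasma spiked with over 400 chemicals, quantified by LC-HRMS and GC-HRMS via internal standard calibration against matrix-matched unspiked plasma extracts plus spike mix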
RECORDED_CONDITIONS: pooled human plasma; extraction method: SPE only (HLB 96-well)
PROPERTY_LABEL: chemical recovery (%)

MOLECULE	PROPERTY_LABEL	VALUE_OBSERVED
C/C(=C\c1ccccc1)c1ccccc1 [trans-a-Methylstilben]	chemical recovery	14.3
CC[C@H](C)[C@H]1O[C@]2(C=C[C@@H]1C)C[C@@H]1C[C@@H](C/C=C(\C)[C@@H](O[C@H]3C[C@H](OC)[C@@H](O[C@H]4C[C@H](OC)[C@@H](NC)[C@H](C)O4)[C@H](C)O3)[C@@H](C)/C=C/C=C3\CO[C@@H]4[C@H](O)C(C)=C[C@@H](C(=O)O1)[C@]34O)O2	chemical recovery	17.2
CN(C)C(=O)Nc1ccc(Cl)c(Cl)c1	chemical recovery	48.9
Cc1ccc(O)c(-n2nc3ccccc3n2)c1	chemical recovery	15.4
O=C1Nc2ccc(Cl)cc2C(C#CC2CC2)(C(F)(F)F)O1 (stereo not given)	chemical recovery	27.1
C[N+](C)(C)CCCl	chemical recovery	0.778
CCNc1nc(Cl)nc(NC(C)(C)C)n1	chemical recovery	61.8
Clc1ccc2c(c1)CCc1cccnc1C2=C1CCNCC1	chemical recovery	30.1
COc1cc(C)c(C(=O)c2c(OC)ccc(Br)c2C)c(OC)c1OC	chemical recovery	50.3
CC/C(=C(\c1ccccc1)c1ccc(OCCN(C)C)cc1)c1ccccc1	chemical recovery	39.4
